The entries below come with measured GI50 values attached.
tested on: COLO 205; test: NCI tumour cell line growth inhibition, 48 h
The source made the active and inactive calls. Cut-off read from the data, not from the text of the source: active = GI50 up to about 1.1 µM and inactive = higher.
measurement kind: GI50

• CCc1cc(CCC(=O)Nc2c(C)cccc2C)n[nH]1 = > 100 µM (inactive)
• O=C1OC2(c3ccccc31)c1cc(I)c(O)c(I)c1Oc1c2cc(I)c(O)c1I = > 100 µM (inactive)
• Cc1cc(=O)oc2c(C3=NN(C=O)C(c4ccccc4)C3)c(O)ccc12 (centres undefined) = > 71.8 µM (inactive)
• COC1OC(CBr)C(OC(c2ccccc2)(c2ccccc2)c2ccccc2)C(OC(c2ccccc2)(c2ccccc2)c2ccccc2)C1OC(c1ccccc1)(c1ccccc1)c1ccccc1 (centres undefined) = > 100 µM (inactive)
